The reported measurements were obtained from paper PMC9437101.

# measurement-description: Cell viability (MTT assay)
# Assay type: cell-based, human
# measurement-context: human, patient-derived glioma cells 3060, 3060
endpoint-name: viability at 72 h, 10 µM
Dear colleague, please send the value followed by its unit.

Exam item: Input COc1cc(/C=C/C(O)=C/C(=O)/C=C/c2ccc(OCc3cn(CCOc4ccc(C=O)cc4)nn3)c(OC)c2)ccc1O , output reported viability at 72 h, 10 µM.
Marked response: 91.2%

* * *

# measurement-description: Cell viability (MTT assay)
# Type: cell-based, murine
# measurement-context: mouse, 4T1 mammary carcinoma cells
endpoint-name: viability at 72 h, 10 µM (%)
Field: numeric (%). Do not append units.

Exam item: Input COc1cc(/C=C/C(O)=C/C(=O)/C=C/c2ccc(OCc3cn(CCOc4ccc(C=O)cc4)nn3)c(OC)c2)ccc1O , output reported viability at 72 h, 10 µM.
Marked response: 83.6

* * *

# target-under-test: ALDH1A1 (Homo sapiens, UniProt P00352)
# Construct: E. coli BL21 (DE3) were transformed with the full-length expression vector of each isoform; His-tag
# Sequence (P00352 whole entry, canonical isoform): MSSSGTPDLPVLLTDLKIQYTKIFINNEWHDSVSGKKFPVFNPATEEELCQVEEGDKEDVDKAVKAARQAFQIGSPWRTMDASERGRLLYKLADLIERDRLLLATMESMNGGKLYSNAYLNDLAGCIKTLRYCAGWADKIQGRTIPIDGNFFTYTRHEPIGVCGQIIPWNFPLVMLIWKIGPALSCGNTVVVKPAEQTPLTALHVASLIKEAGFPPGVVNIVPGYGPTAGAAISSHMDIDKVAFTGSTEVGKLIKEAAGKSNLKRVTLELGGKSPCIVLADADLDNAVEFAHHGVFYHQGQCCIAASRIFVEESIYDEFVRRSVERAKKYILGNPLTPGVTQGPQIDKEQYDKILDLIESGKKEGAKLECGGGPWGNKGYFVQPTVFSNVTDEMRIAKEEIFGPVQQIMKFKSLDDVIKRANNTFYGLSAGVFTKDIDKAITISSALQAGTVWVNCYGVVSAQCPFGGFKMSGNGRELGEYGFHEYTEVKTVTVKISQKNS
# measurement-description: Kd evaluation by fluorescence emission assay
# measurement-context: probe 10 μM, ALDH1A1 100 to 1.1719 μM
Examples of molecules with documented Kd follow.
Field: numeric (µM). Do not append units.

[
  {
    "compound-string": "COc1cc(/C=C/C(O)=C/C(=O)/C=C/c2ccc(OCc3cn(CCOc4ccc(C=O)cc4)nn3)c(OC)c2)ccc1O",
    "target-under-test": "ALDH1A1 (Homo sapiens, UniProt P00352)",
    "Kd (µM)": 31.1
  }
]

Exam item: Input CCOC(=O)Cn1cc(COc2ccc(/C=C/C(=O)/C=C(O)/C=C/c3ccc(O)c(OC)c3)cc2OC)nn1 , output reported Kd.
Marked response: 42.4
